B1: INTS4 (parent)
chain: AKQIMEETYKMEFMYSGVENKQVV

Variants of: B1
Test: protein stability index of a GFP-peptide fusion (GPS, HEK-293T) (PSI 1-6); higher = more stable;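 further: lentivirally expressed fusions sorted by FACS into six bins by GFP to DsRed ratio, PSI derived from sequencing read proportions per bin multiplied by bin number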
Conditions: c terminus: a fixed tail appended
Reported protein stability index by item:
Give the figure only, with no unit attached.

Example cases with answers are listed next.
{"Sequence Change": "K2L", "protein stability index": 2.62}
{"Sequence Change": "I4S", "protein stability index": 2.99}
{"Sequence Change": "V23H", "protein stability index": 1.88}

Consider the variant `K10C` and give its recorded protein stability index.
1.6

Consider the variant `E19R` and give its recorded protein stability index.
1.95

Consider the variant `M5C` and give its recorded protein stability index.
2.87

Consider the variant `G17D` and give its recorded protein stability index.
1.84

Consider the variant `S16Q` and give its recorded protein stability index.
1.91

Consider the variant `S16C` and give its recorded protein stability index.
2.1

Consider the variant `Y9E` and give its recorded protein stability index.
4.34

Consider the variant `I4T` and give its recorded protein stability index.
2.9

Consider the variant `E6Y` and give its recorded protein stability index.
1.61

Consider the variant `A1T` and give its recorded protein stability index.
2.8

Consider the variant `Y15W` and give its recorded protein stability index.
1.67

Consider the variant `V18Y` and give its recorded protein stability index.
1.9
